Experiment: protein stability index of a GFP-peptide fusion (GPS, HEK-293T) (PSI 1-6); higher = more stable;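 further: 24-mer peptide tiles fused after GFP, lentivirally expressed, FACS-sorted into six equal bins by GFP/DsRed ratio, decoded by Illumina sequencing, PSI is the read-weighted mean bin number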
Details: treatment: DMSO; c terminus: a fixed tail appended
Listed sequences paired with reported protein stability index
test-readout: protein stability index

| sequence-input | value |
| --- | --- |
| VRSKYNDDIRKGIVLLEELLPKGS [FIS1] | 2.87 |
| MGGCPVRKRRRNGSKEGNHHSTQP [FAM104B] | 4.72 |
| MRRGAPQDQELVGPGPPGRGSRGA [MOSPD3] | 5.31 |
| GGEMSPQVETSIEGTIPFSKPVKV [INTS4] | 4.77 |
| SFAQATQLGDLHTCLMMDMKACQE [INTS3] | 3.21 |
| EQHVHNEKSVLKEVSHPFLIRLFW [PRKX] | 2.25 |
| PDREKGFHLDVEDYLSGVLILASE [TSN] | 2.14 |
| SRKNATQPPNAEEESGSSSASEEE [INTS3] | 5.53 |
| SKDCKPPVYLLLELEDKDGLQSAQ [MYBL2] | 3.93 |
| EAYTEHRPEITSRAINLLFDIARI [ZER1] | 2.14 |
| DPTGPAGLGRPTPGLSQGPGKETL [EHMT1] | 5.17 |
| GDDAPKEEVDTGAVNLIESGACGA [INTS4] | 5.5 |
| LLSIGPELPKPEVISQLEQGTELW [ZNF8] | 4.19 |
| RRWHKSRLLQASGGGLTGVSGSHF [PCDHGA10] | 2.67 |
| NQGYLSEAGASLVDQKLELNIVPR [PI4K2A] | 4.05 |
| GGKIIMPPSALDQLSRLNITYPML [UFD1] | 2.16 |
| EPDNWMKEVMLFGHGTRKRVPLGR [RSAD1] | 3.69 |
| MKALILVGGYGTRLRPLTLSTPKP [GMPPB] | 2.18 |
| YVEVKEGKTWKQICDKHWTAKNSR [LOXL2] | 2.62 |
| DLCSDVNVCSLLAQTPLHVAAETG [RIPK4] | 3.46 |
| ALSLIRFPLMTIEEFAAGPAQSGI [BTBD1] | 2.09 |
| QKNKKILKSAKDLPPDALIIEYRG [KMT2E] | 2.82 |
| EVEELDNWQPAVPLMHMLHLSGAL [SPATS1] | 2.18 |
| VTFAAMQAQQGRSSLVWLFSQLYL [MCOLN1] | 3.03 |
| VALLTGKFSNIVDKFVIVDCRYPY [CDC25B] | 2.45 |
| FDVVVCDQVSACIPVFRLARRRKK [ALG2] | 2.59 |
| NPTQNVRTILLSVISLLNEPNTFS [CDC34] | 2.86 |
| SEHLKQRREVAKTVFCLVVIFALC [EDNRA] | 2.58 |
| DVAVTVDRDRFMDEFFEQVEEIRG [STX1A] | 4.35 |
| AAGELPTVECYNPRTNEWTYVAKM [KLHL13] | 3.11 |
| VNLQRFGMNGQMLCNLGKERFLEL [ETS2] | 2.27 |
| SGTIMKIGIEAKNLASYDVCSILL [MCOLN1] | 2.87 |
| APHSQGEYDVYSTFQSHEPEFDYL [PPP2R2C] | 4.22 |
| WSIFYFFKSFQYPLPWSECPVVRN [SLC6A17] | 2.41 |
| SEEQLQEPITGWRKTVCHNGVLGL [LPCAT4] | 3.58 |
| GSSDASGSYSSTMNGHQNGLDSPP [ESRRG] | 4.93 |
| GRRAALYVHWPYCEKRCSYCNFNK [RSAD1] | 2.23 |
| QELVLKVRIQNPSLRENDFIEIEL [ANKRD40] | 2.68 |
| SASASTTTTVTAVTAEVDLFGDAF [SNAP91] | 4.28 |
| VRVNDGGGSHPSRPNSRHTPSFSG [VDR] | 3.72 |
| SRREREPEPPAAVDFLEPDSGTCP [FCHO1] | 5.43 |
| CNSHMPYGYAAQARARERERLAHS [KCNA4] | 3.1 |
| RSLFIDRTIVKGYNENVYTEDGKL [MED27] | 4.07 |
| KLVKKHAAQRSTETALYRKMLGNP [FKBP8] | 2.95 |
| DCGPSRADRCSPKEDQAWDGASQD [FBXO34] | 5.37 |
| EDAEGEEEEEEEEEEEDDLSELPP [FKBP8] | 5.67 |
| APKPDAAPSIDLFSTDAFSSPPQG [SNAP91] | 4.73 |
| ESDTDIYETVAAATSESTTVEPGK [DRICH1] | 5.66 |
| VNEFSLKGVDFQKFCMNGAALCAL [ETS1] | 2.32 |
| YALQMEQLNGILLHLESELAQTRA [KRT18] | 2.24 |
| PEGGLEEPDALDDSLTSLQWLQEF [FOXJ1] | 4.64 |
| SSATTYFWYREALDISDSISESGG [SLC6A17] | 2.62 |
| YEYDHWDAAIHGFRETEKSRWSEA [ALKBH7] | 3.64 |

Every entry's value here was drawn from the supplement of paper PMC10567573.
